In this section we review reported ED values for a set of molecules.
Target: Vasopressin receptor (Rattus norvegicus) (UniProt P48974+P30560+Q00788)
Assay: Antiantidiuretic potency in terms of measuring changes in urine flow in water-loaded rats under ethanol anesthesia
Format: functional
Unit nM/kg implied. Number only.

CCOc1ccc(C[C@H]2NC(=O)CC3(CCCCC3)SSC[C@@H](C(=O)N3CCC[C@H]3C(=O)N[C@@H](CCCN=C(N)N)C(=O)NCC(N)=O)NC(=O)[C@H](CC(N)=O)NC(=O)[C@H]([C@@H](C)CC)NC(=O)[C@H](Cc3ccccc3)NC2=O)cc1 = 1.2
CCOc1ccc(C[C@H]2NC(=O)CC3(CCCCC3)SSC[C@@H](C(=O)N3CCC[C@H]3C(=O)N[C@@H](CCCN=C(N)N)C(=O)NCC(=O)NCCN)NC(=O)[C@H](CC(N)=O)NC(=O)[C@H](C(C)C)NC(=O)[C@H](Cc3ccccc3)NC2=O)cc1 = 1.2
CCOc1ccc(C[C@H]2NC(=O)CC3(CCCCC3)SSC[C@H](C(=O)NCCNC(=O)[C@@H](N)CCCN=C(N)N)NC(=O)[C@@H](CC(N)=O)NC(=O)[C@H](C(C)C)NC(=O)[C@@H](Cc3ccccc3)NC2=O)cc1 = 0.83

The record that follows has no ED shown yet.
Q: Could you tell me which ED is on file for CCOc1ccc(C[C@H]2NC(=O)CC3(CCCCC3)SSC[C@H](C(=O)NCCNC(=O)C(N)CCCN=C(N)N)NC(=O)[C@@H](CC(N)=O)NC(=O)[C@H](C(C)C)NC(=O)[C@@H](Cc3ccccc3)NC2=O)cc1 (stereo not given in full) ?
Ans: 2.1
